Cited source: PubChem BioAssay

# Tested on: Fibrinogen (Alexa647-labelled)
# ASSAY INFO: fibrinogen binders on compound microarrays, profiling panel, artefact control for SMM control-protein annotation, biochemical, small-molecule microarray, 635/667 nm fluorescence (AID 1131);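 note: z-score merges 667 nm fluorescence with per-spot signal-to-noise over triplicate slides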
# RECORDED CONDITIONS: fibrinogen-A647 binding fluorescence, higher = more signal
Quick reference: composite z-score of the listed items.
When you answer, write just the number.

Check out these entries, answers already filled in.
1) C=CCC(OC(C)=O)[C@@H]1[C@@H](N(Cc2cccc3ccccc23)C(=O)c2ccc(C)cc2)c2cc(OCCCO)ccc2N1C(=O)Cc1ccc(OC)cc1 (stereo partly drawn) | 0.342
2) COc1ccc([Si](C)(C)[C@H]2[C@H](CC(=O)N(CCO)Cc3ccccc3)O[C@@]3(C(=O)N(Cc4cccc(N5CCC5=O)c4)c4ccccc43)[C@@H]2C)cc1 | 0.279

The record that follows has no composite z-score shown yet.
// query composite z-score value for entry `CN(C)C(=O)[C@]1(CCC(=O)OC(C)(C)C)N=C(c2ccc(OCCCO)cc2)O[C@@H]1c1ccccc1N=[N+]=[N-]`
0.996
